Measured inhibition of growth at 10 µM by item
- Tested on: HOP-62
- method_description: Growth inhibition of human HOP62 cells at 10 uM after 48 hrs by SRB assay relative to control
- Format: functional
- assay_setup: HOP-62, 48 h, read-out: GI
Give the number first and the unit second.

These recorded examples may help you get a feel for the data.
COc1ccc(Cc2nnc(SCC(=O)c3ccc(Cl)cc3)n2-c2ccc(C)cc2)cc1
11.7%
COc1ccc(Cc2nnc(SCC(=O)c3ccc(C)cc3)n2-c2ccccc2)cc1
6.7%

Using the record for COc1ccc(Cc2nnc(SCC(=O)Nc3ccc(Cl)cc3)n2Cc2ccccc2)cc1 , state its measured inhibition of growth at 10 µM. 12%

Supply inhibition of growth at 10 µM value. Item: COc1ccc(Cc2nnc(SCC(=O)Nc3ccc(Cl)cc3)n2-c2ccccc2)cc1 8.3%

Quickly give me recorded inhibition of growth at 10 µM for COc1ccc(Cc2nnc(SCC(=O)c3ccc(Cl)cc3)n2-c2ccccc2)cc1 1.26%

Supply inhibition of growth at 10 µM value. Item: COc1ccc(Cc2nnc(SCC(=O)Nc3ccc(C)cc3)n2-c2ccc(C)cc2)cc1 1.2%

Output inhibition of growth at 10 µM of CCSc1nnc(Cc2ccc(OC)cc2)n1-c1ccccc1 2.28%

Read the entry COc1ccc(Cc2nnc(SCC(=O)c3ccc(Cl)cc3)n2Cc2ccccc2)cc1 and write its reported inhibition of growth at 10 µM. 11.2%

Return value of inhibition of growth at 10 µM for input COc1ccc(Cc2nnc3sc(SCC(=O)c4ccc(Cl)cc4)nn23)cc1 , no commentary. 7.5%

Return the recorded inhibition of growth at 10 µM value; entry: COc1ccc(Cc2nnc(SCC(=O)Nc3ccc(C)cc3)n2-c2ccccc2)cc1 6.8%

###

Target sequence: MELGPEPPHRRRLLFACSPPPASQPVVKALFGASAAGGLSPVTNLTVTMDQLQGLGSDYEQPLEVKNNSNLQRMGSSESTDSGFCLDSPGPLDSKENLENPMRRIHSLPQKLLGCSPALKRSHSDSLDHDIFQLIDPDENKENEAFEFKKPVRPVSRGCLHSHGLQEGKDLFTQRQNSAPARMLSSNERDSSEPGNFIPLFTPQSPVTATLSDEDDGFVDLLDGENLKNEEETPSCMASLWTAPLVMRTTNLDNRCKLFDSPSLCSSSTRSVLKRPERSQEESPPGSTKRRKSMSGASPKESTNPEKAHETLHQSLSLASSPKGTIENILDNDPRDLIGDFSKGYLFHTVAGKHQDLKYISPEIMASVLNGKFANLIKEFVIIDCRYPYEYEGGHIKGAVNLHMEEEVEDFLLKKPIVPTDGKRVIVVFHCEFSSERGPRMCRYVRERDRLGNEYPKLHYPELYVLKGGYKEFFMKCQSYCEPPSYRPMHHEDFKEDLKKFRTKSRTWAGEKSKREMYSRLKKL
Known IC50 of a selection of molecules
Respond numerically; units are µM and should not be typed.

# count of solved cases: 4
COc1ccc(Cc2nnc(SCC(=O)c3ccc(Cl)cc3)n2Cc2ccccc2)cc1
11.4
COc1ccc(Cc2nnc(SCC(=O)c3ccc(Cl)cc3)n2-c2ccc(C)cc2)cc1
20.5
COc1ccc(Cc2nnc(SCC(=O)Nc3ccc(Cl)cc3)n2-c2ccccc2)cc1
32.9
COc1ccc(Cc2nnc(SCC(=O)c3ccc(Cl)cc3)n2-c2ccccc2)cc1
30.7

Given COc1ccc(Cc2nnc(SCC(=O)Nc3ccc(Cl)cc3)n2Cc2ccccc2)cc1 , respond with its IC50. 14.1
